Assay overview: MRT value at a dose of 10 mg/kg peroral administration in mice.
Format: ADME, organism-based
Design: dose 10 mg/kg, route oral
Measurement setup: mouse, in vivo, po
Observation type: MRT (h)

[[record]]
molecular_string = "CC(C)(C)c1cnc(CSc2cnc(NC(=O)Cc3ccc(CNC(CO)CO)cc3)s2)o1"
value_reported = 4.1


###

Assay overview: At a dose 50 mg/kg (114 umol/kg) was administered intraperitoneally to mice and was evaluated for area under curve (AUCtot)
Type: ADME, organism-based
Design: time AUCmax, dose 50 mg/kg, route intraperitoneal
Measurement setup: mouse, in vivo, ip
Observation type: AUC

[[record]]
compound = "CN1CC[C@H](c2c(O)cc(O)c3c(=O)cc(-c4ccccc4Cl)oc23)[C@H](O)C1 [ALVOCIDIB]"
value_reported = "13.2 µM·h"

